I'd appreciate it if you could supply selectivity ratio values for the items below.
# Assay notes: Selectivity index for antiviral vs cytotoxic effect in Vero E6 cells (CC50/EC50)
# Assay type: toxicity, cell-based, Vero C1008
# Conditions: monkey, read-out: Selectivity index

Recorded selectivity ratio, per entry:
>  <Smiles>
Clc1ccc(Cn2c(CN3CCCC3)nc3ccccc32)cc1

>  <selectivity ratio>
> 1.7

$$$$
>  <Smiles>
CCCCC[C@H](O)/C=C/[C@H]1[C@H](O)CC(=O)[C@@H]1CCCCCCC(=O)O

>  <selectivity ratio>
> 7.4

$$$$

Then there is this compound:
Exercise: Endpoint output: selectivity ratio of CCOC(=O)c1c(CSc2ccccc2)n(C)c2cc(Br)c(O)c(CN(C)C)c12 . Value?
Solution: > 3.7
